Give Kp for every item shown.
# experimentalDetails: in vivo
# measurementContext: CF-1, mouse, in vivo
Lab note: jot down the number only; don't add units.

## Task // query Kp value for entry NC(=O)O[C@@H](Cn1ncnn1)c1ccccc1Cl [CNB, cenobamate]
## Result 0.38

## Task Proceed to COC[C@@H](NC(C)=O)C(=O)NCc1ccccc1 [LSM, lacosamide]
## Result 0.77

----------
Give EC50 for every item shown.
# Tested on: MES-induced seizures
# experimentalDetails: animal or person
# Format: in vivo
# measurementContext: mouse MES; brain concentration for 50% probability of seizure protection; read-out: EC50 Brain
Report the figure in µM without appending any unit label.

## Task // query EC50 value for entry NC(=O)O[C@@H](Cn1ncnn1)c1ccccc1Cl [CNB, cenobamate]
## Result 24.9

## Task Proceed to "O=C1NC(=O)C(c2ccccc2)(c2ccccc2)N1"
## Result 30.6

## Task Proceed to NC(=O)N1c2ccccc2C=Cc2ccccc21 [CBZ, carbamazepine]
## Result 32.5

## Task Proceed to COC[C@@H](NC(C)=O)C(=O)NCc1ccccc1 [LSM, lacosamide]
## Result 14.8

----------
# Test system: MES-induced seizures
# experimentalDetails: animal or person
# Assay type: in vivo
# measurementContext: mouse MES; plasma concentration for 50% probability of seizure protection, one time point after single dose; read-out: EC50 Plasma
valueType: pEC50
Answer as the number alone; pEC50 is minus log10 of concentration in mol/L.

## Task // query pEC50 value for entry "O=C1NC(=O)C(c2ccccc2)(c2ccccc2)N1"
## Result 4.56

## Task Proceed to NC(=O)O[C@@H](Cn1ncnn1)c1ccccc1Cl [CNB, cenobamate]
## Result 4.18

## Task Proceed to "CCOC(=O)Nc1ccc(NCc2ccc(F)cc2)cc1N"
## Result 5.65

## Task Proceed to NC(=O)N1c2ccccc2C=Cc2ccccc21 [CBZ, carbamazepine]
## Result 4.86

## Task Proceed to "CCCC(CCC)C(=O)O"
## Result 2.78

## Task Proceed to COC[C@@H](NC(C)=O)C(=O)NCc1ccccc1 [LSM, lacosamide]
## Result 4.71

----------
Give PPB (% bound) for every item shown.
# experimentalDetails: Plasma protein binding, mouse
# measurementContext: Xenon in-house data
Report the figure in % bound without appending any unit label.

## Task // query PPB (% bound) value for entry CCOC(=O)Nc1ccc(NCc2ccc(F)cc2)cc1N [RTG, retigabine]
## Result 86.2

## Task Proceed to NC(=O)N1c2ccccc2C=Cc2ccccc21 [CBZ, carbamazepine]
## Result 52.4

## Task Proceed to O=C1NC(=O)C(c2ccccc2)(c2ccccc2)N1 [PHT, phenytoin]
## Result 80.3

## Task Proceed to COC[C@@H](NC(C)=O)C(=O)NCc1ccccc1 [LSM, lacosamide]
## Result 21.8

----------
# experimentalDetails: in vivo
# measurementContext: Sprague-Dawley, rat, in vivo
valueType: Kp

## Task // query Kp value for entry COC[C@@H](NC(C)=O)C(=O)NCc1ccccc1 [LSM, lacosamide]
## Result 0.49

## Task Proceed to NC(=O)O[C@@H](Cn1ncnn1)c1ccccc1Cl [CNB, cenobamate]
## Result 0.67

----------
# experimentalDetails: Plasma protein binding, rat
# measurementContext: Xenon in-house data
# label = Met if PPB (% bound) >= 50 % bound else Not met

## Task Confirm if PPB (% bound) reported for the molecule NC(=O)N1c2ccccc2C=Cc2ccccc21 [CBZ, carbamazepine] is 50 % bound or above.
## Result Met

## Task Proceed to "CCOC(=O)Nc1ccc(NCc2ccc(F)cc2)cc1N"
## Result Met

## Task Proceed to COC[C@@H](NC(C)=O)C(=O)NCc1ccccc1 [LSM, lacosamide]
## Result Not met

## Task Proceed to "O=C1NC(=O)C(c2ccccc2)(c2ccccc2)N1"
## Result Met

## Task Proceed to NC(=O)O[C@@H](Cn1ncnn1)c1ccccc1Cl [CNB, cenobamate]
## Result Not met

Where do the numbers come from? From paper PMC12346480.
